- target-desc: NMDAR2A expressing HEK cell membranes (Homo sapiens, UniProt Q05586+Q12879)
- Construct: expressed in transfected cells; host or cells: HEK cells (membrane extract)
- Sequence (Q12879 23-1464, other chains not shown): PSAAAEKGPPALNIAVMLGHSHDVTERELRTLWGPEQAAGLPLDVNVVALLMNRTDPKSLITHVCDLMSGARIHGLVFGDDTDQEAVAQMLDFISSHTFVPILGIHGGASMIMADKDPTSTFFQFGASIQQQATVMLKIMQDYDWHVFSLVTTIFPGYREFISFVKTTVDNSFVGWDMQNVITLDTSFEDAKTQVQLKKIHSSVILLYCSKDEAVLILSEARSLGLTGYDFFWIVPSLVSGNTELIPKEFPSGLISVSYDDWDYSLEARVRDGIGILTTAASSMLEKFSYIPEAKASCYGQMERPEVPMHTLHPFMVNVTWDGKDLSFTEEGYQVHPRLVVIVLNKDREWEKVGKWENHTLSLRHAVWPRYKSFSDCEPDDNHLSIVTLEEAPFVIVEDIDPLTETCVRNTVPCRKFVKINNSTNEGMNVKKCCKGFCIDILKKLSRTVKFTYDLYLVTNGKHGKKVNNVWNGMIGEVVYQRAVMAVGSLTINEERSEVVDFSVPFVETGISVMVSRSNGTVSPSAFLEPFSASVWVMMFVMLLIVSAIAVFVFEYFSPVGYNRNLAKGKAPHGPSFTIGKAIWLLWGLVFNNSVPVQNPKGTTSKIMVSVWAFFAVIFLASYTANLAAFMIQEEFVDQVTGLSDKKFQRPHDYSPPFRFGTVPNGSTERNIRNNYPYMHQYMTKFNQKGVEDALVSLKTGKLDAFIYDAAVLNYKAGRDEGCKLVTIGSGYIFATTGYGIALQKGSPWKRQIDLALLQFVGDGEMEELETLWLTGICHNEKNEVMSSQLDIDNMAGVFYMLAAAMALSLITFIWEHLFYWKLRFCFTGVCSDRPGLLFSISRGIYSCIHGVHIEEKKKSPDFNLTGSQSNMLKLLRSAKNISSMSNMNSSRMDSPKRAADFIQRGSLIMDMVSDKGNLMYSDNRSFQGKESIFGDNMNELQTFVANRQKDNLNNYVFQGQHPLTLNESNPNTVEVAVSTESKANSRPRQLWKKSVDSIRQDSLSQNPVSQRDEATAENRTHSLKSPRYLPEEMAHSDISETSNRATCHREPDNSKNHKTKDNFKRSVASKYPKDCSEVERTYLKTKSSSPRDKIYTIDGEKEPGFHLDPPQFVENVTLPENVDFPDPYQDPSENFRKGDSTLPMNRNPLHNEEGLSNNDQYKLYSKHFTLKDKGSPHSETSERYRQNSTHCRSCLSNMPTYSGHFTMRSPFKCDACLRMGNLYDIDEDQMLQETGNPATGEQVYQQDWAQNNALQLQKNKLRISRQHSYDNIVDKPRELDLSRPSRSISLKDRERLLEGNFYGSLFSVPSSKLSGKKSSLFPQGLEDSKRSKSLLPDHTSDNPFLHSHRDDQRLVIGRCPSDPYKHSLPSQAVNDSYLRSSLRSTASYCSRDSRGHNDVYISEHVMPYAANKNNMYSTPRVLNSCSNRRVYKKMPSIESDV
- assay-procedure: NMDAR agonist assay, [3H]MK-801 binding, NMDAR2A
- Format: biochemical
- details: NMDAR2A: log EC50, 50 μM glutamate; [3H]MK-801 binding
Measured EC50 by item
measured-parameter: EC50

INSERT INTO measurements (compound, measured_parameter, reading) VALUES
  ('CN1C2(CCC13CNC3=O)CNC2=O (centres unmarked) [AB-3]', 'EC50', '> 0.1 µM'),
  ('CN1C2(CCC13CNC3=O)CNC2=O (single isomer, unassigned) [AB-2]', 'EC50', '> 0.1 µM'),
  ('CC(C)CN1C2(CCC13CNC3=O)CNC2=O (centres unmarked)', 'EC50', '> 0.1 µM'),
  ('CN1C2(CCC13CNC3=O)CNC2=O (single isomer, unassigned) [AB-1]', 'EC50', '< 0.001 µM'),
  ('O=C1NCC12CCC1(CNC1=O)N2 (single isomer, unassigned) [AK]', 'EC50', '> 0.1 µM'),
  ('CC(C)CN1[C@]2(CC[C@]13CNC3=O)CNC2=O', 'EC50', '< 0.001 µM'),
  ('CC(C)CN1[C@@]2(CC[C@@]13CNC3=O)CNC2=O', 'EC50', '< 0.001 µM'),
  ('O=C1NCC12CCC1(CNC1=O)N2 (single isomer, unassigned) [AJ]', 'EC50', '< 0.001 µM');

----------
- target-desc: NMDAR2B expressing HEK cell membranes (Homo sapiens, UniProt Q05586+Q13224)
- Construct: expressed in transfected cells; host or cells: HEK cells (membrane extract)
- Sequence (Q13224 27-1484, other chains not shown): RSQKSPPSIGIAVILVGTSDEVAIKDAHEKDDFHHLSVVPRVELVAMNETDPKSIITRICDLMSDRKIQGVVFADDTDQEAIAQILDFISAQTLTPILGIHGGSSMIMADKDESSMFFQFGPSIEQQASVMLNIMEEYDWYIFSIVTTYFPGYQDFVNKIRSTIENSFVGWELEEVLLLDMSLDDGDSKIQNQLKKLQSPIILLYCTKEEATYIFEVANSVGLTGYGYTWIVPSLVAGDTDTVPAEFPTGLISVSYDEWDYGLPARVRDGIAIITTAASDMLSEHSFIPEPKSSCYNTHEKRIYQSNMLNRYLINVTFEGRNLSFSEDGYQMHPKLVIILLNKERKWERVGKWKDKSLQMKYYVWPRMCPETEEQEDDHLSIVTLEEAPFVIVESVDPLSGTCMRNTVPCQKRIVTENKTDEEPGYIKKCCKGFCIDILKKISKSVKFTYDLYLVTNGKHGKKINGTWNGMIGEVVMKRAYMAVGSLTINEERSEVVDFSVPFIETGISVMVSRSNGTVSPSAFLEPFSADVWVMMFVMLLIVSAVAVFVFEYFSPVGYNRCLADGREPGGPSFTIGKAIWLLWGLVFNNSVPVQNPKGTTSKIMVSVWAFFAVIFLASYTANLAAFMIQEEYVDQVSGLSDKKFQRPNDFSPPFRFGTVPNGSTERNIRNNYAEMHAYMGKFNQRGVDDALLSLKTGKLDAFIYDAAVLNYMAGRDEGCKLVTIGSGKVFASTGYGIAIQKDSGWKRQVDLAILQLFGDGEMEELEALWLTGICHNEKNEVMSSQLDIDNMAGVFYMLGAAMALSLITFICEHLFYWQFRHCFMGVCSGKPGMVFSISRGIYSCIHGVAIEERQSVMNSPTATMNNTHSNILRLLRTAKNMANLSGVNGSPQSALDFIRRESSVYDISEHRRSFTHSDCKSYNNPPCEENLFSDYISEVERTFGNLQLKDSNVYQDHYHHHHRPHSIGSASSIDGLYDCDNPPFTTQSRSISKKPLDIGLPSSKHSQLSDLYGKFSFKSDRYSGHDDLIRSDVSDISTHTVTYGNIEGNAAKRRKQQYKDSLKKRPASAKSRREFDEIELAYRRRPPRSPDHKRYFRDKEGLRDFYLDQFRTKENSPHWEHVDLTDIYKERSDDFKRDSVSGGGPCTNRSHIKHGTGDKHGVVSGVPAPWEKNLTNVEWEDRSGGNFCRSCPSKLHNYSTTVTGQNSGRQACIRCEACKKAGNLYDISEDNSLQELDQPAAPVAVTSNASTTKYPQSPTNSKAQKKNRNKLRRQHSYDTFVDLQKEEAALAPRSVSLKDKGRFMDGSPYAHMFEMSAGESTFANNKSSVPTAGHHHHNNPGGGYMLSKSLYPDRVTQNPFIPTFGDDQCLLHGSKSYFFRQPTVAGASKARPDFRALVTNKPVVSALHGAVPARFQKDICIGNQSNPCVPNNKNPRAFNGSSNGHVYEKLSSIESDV
- assay-procedure: NMDAR agonist assay, [3H]MK-801 binding, NMDAR2B
- Assay type: biochemical
- details: 50 μM glutamate; [3H]MK-801 binding; read-out: NMDAR2B log EC50 (converted)
measured-parameter: EC50

INSERT INTO measurements (molecule, target_desc, reading) VALUES
  ('CC(C)C(=O)N1C(C(=O)N[C@H](C(N)=O)[C@@H](C)O)CCC12CNC2=O (single isomer, unassigned) [AS]', 'NMDAR2B expressing HEK cell membranes (Homo sapiens, UniProt Q05586+Q13224)', '< 1 nM'),
  ('CC(C)(C)OC(=O)N1CC2(CN(OCc3ccccc3)C2=O)CC12CN(OCc1ccccc1)C2=O (single isomer, unassigned) [AV]', 'NMDAR2B expressing HEK cell membranes (Homo sapiens, UniProt Q05586+Q13224)', '< 1 nM'),
  ('CC(C)(C)OC(=O)N1C(C(N)=O)CCC12CNC2=O (single isomer, unassigned) [BE]', 'NMDAR2B expressing HEK cell membranes (Homo sapiens, UniProt Q05586+Q13224)', '> 100 nM'),
  ('O=C1NCC12CCC1(CNC1=O)N2Cc1ccccc1 (single isomer, unassigned) [AC-2]', 'NMDAR2B expressing HEK cell membranes (Homo sapiens, UniProt Q05586+Q13224)', '< 1 nM');

----------
Known C0 of a selection of molecules
- assay-procedure: IV pharmacokinetics
- Assay type: in vivo
- details: rat, in vivo, Sprague Dawley rats, 2 mg/kg, normal saline, read-out: C0
measured-parameter: C0 (ng/mL)

INSERT INTO measurements (molecule, reading) VALUES
  ('CC(C)CN1[C@]2(CC[C@]13CNC3=O)CNC2=O', 3900),
  ('CC(C)CN1[C@@]2(CC[C@@]13CNC3=O)CNC2=O', 2800),
  ('O=C1NCC12CCC1(CNC1=O)N2 (single isomer, unassigned)', 4860);

----------
- assay-procedure: Oral pharmacokinetics (plasma, brain, CSF)
- Type: in vivo
- details: rat, po; Sprague Dawley rats, per os, 10 mg/kg, plasma; read-out: Cmax
- Protocol: In another experiment, Sprague Dawley rats were dosed per os using a normal saline formulation containing 10 mg/kg of the compounds identified in the table below. Plasma, brain, and CSF samples were analyzed at various time points over a 24 hour period. The table below summarizes the results of the oral pharmacokinetics.
measured-parameter: Cmax

INSERT INTO results (compound, measured_parameter, reading) VALUES
  ('O=C1NCC12CCC1(CNC1=O)N2 (single isomer, unassigned) [AJ]', 'Cmax', '1160 ng/mL'),
  ('CC(C)CN1[C@]2(CC[C@]13CNC3=O)CNC2=O [Compound AF]', 'Cmax', '7250 ng/mL'),
  ('CC(C)CN1[C@@]2(CC[C@@]13CNC3=O)CNC2=O [Compound AD]', 'Cmax', '8560 ng/mL');

----------
Each entry below carries its recorded bioavailability.
- assay-procedure: Oral pharmacokinetics (plasma, brain, CSF)
- Assay type: in vivo
- details: rat, plasma, po; Sprague Dawley rats, per os, 10 mg/kg
measured-parameter: bioavailability (%)

INSERT INTO assay_data (molecule, measurement_units, reading) VALUES
  ('O=C1NCC12CCC1(CNC1=O)N2 (single isomer, unassigned) [AJ]', '%', 20),
  ('CC(C)CN1[C@@]2(CC[C@@]13CNC3=O)CNC2=O [Compound AD]', '%', 82),
  ('CC(C)CN1[C@]2(CC[C@]13CNC3=O)CNC2=O [Compound AF]', '%', 82);

----------
- assay-procedure: IV pharmacokinetics
- Format: in vivo
- details: Sprague Dawley, rat, in vivo, iv, 2 mg/kg, Sprague Dawley rats, normal saline
measured-parameter: half-life

INSERT INTO measurements (molecule, reading) VALUES
  ('CC(C)C(=O)N1C(C(=O)N[C@H](C(N)=O)[C@@H](C)O)CCC12CNC2=O (single isomer, unassigned) [AS]', '3.17 h'),
  ('C[C@@H](O)[C@H](NC(=O)C1CCC2(CNC2=O)N1)C(N)=O (single isomer, unassigned) [AQ-1]', '0.36 h'),
  ('CC(=O)N1C(C(=O)N[C@H](C(N)=O)[C@@H](C)O)CCC12CNC2=O (stereo partly drawn) [AO]', '2.17 h');

----------
- target-desc: NMDAR2B expressing HEK cell membranes (Homo sapiens, UniProt Q05586+Q13224)
- Construct: expressed in transfected cells; host or cells: HEK cells (membrane extract)
- assay-procedure: NMDAR agonist assay, [3H]MK-801 binding, NMDAR2B
- Type: biochemical
- details: NMDAR2B: log EC50, 50 μM glutamate; [3H]MK-801 binding
measured-parameter: EC50

INSERT INTO measurements (compound, target_desc, reading) VALUES
  ('O=C1NCC12CCC1(CNC1=O)N2 (single isomer, unassigned) [AK]', 'NMDAR2B expressing HEK cell membranes (Homo sapiens, UniProt Q05586+Q13224)', '> 100 nM'),
  ('CC(C)CN1[C@@]2(CC[C@@]13CNC3=O)CNC2=O', 'NMDAR2B expressing HEK cell membranes (Homo sapiens, UniProt Q05586+Q13224)', '< 1 nM'),
  ('CN1C2(CCC13CNC3=O)CNC2=O (centres unmarked) [AB-3]', 'NMDAR2B expressing HEK cell membranes (Homo sapiens, UniProt Q05586+Q13224)', '> 100 nM'),
  ('CN1C2(CCC13CNC3=O)CNC2=O (single isomer, unassigned) [AB-1]', 'NMDAR2B expressing HEK cell membranes (Homo sapiens, UniProt Q05586+Q13224)', '> 100 nM'),
  ('CN1C2(CCC13CNC3=O)CNC2=O (single isomer, unassigned) [AB-2]', 'NMDAR2B expressing HEK cell membranes (Homo sapiens, UniProt Q05586+Q13224)', '< 1 nM'),
  ('O=C1NCC12CCC1(CNC1=O)N2 (single isomer, unassigned) [AJ]', 'NMDAR2B expressing HEK cell membranes (Homo sapiens, UniProt Q05586+Q13224)', '< 1 nM'),
  ('CC(C)CN1C2(CCC13CNC3=O)CNC2=O (centres unmarked)', 'NMDAR2B expressing HEK cell membranes (Homo sapiens, UniProt Q05586+Q13224)', '> 100 nM'),
  ('CC(C)CN1[C@]2(CC[C@]13CNC3=O)CNC2=O', 'NMDAR2B expressing HEK cell membranes (Homo sapiens, UniProt Q05586+Q13224)', '< 1 nM');

----------
Parameter EC50: see the listing below.
- target-desc: NMDAR2B expressing HEK cell membranes (Homo sapiens, UniProt Q05586+Q13224)
- Construct: expressed in transfected cells; host or cells: HEK cells (membrane extract)
- assay-procedure: NMDAR agonist assay, [3H]MK-801 binding, NMDAR2B
- Format: biochemical
- details: 50 μM glutamate; [3H]MK-801 binding; read-out: NMDAR2B log EC50 (converted)
measured-parameter: EC50

INSERT INTO measurements (compound, measured_parameter, reading) VALUES
  ('COc1ccc(CN2CC3(CC(N[C@H](C(N)=O)[C@@H](C)O)CN3)C2=O)cc1 (stereo partly shown) [CC]', 'EC50', '> 100 nM'),
  ('C[C@@H](O)[C@@H](C(=O)N(C)C)N(C)CC1CCC2(CN(OCc3ccccc3)C2=O)N1C(=O)OC(C)(C)C (stereo partly shown) [BW]', 'EC50', '< 1 nM'),
  ('CC(C)C(=O)N1C2(CCC13CNC3=O)CNC2=O (single isomer, unassigned) [AG]', 'EC50', '> 100 nM'),
  ('CNC(=O)C(NCC1CCC2(CN(OCc3ccccc3)C2=O)N1)C(C)O (single isomer, unassigned) [CO]', 'EC50', '< 1 nM'),
  ('C[C@@H](O)[C@H](NCC1CCC2(CNC2=O)N1C(=O)OC(C)(C)C)C(=O)N(C)C (single isomer, unassigned) [BT]', 'EC50', '> 100 nM'),
  ('O=C1NCC12CN(Cc1ccc(F)cc1)C1(CNC1=O)C2 (single isomer, unassigned) [DK]', 'EC50', '< 1 nM'),
  ('CC(C)(C)OC(=O)N1CC2(CN(OCc3ccccc3)C2=O)CC12CN(OCc1ccccc1)C2=O (single isomer, unassigned) [AX]', 'EC50', '> 100 nM');
